EXPERIMENT DESCRIPTION: qHTS Assay for Inhibitors of Fructose-1,6-bisphosphate Aldolase from Giardia Lamblia: Giardia lamblia growth inhibition (AID 2785);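 also: trophozoites exposed to compound for 48 h at 37 °C; % is scaled to controls: 0 for no effect and ±100 for the full control effect; nearly all actives have a fitted effect of over 70% in size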
TEST SETTINGS: Giardia lamblia trophozoite growth inhibition; series mostly up to 57.5 µM
Some of the results follow. Records with an inconclusive call do not appear. The source made the active and inactive calls. Calls follow the shape of the dose curve; as a rule, active = well fitted inhibition curve with a large enough effect; inconclusive = small, poorly fitted or top-dose-only effect, or effect the other way; inactive = no such curve, though single readings can be large or run the other way.
ENDPOINT: activity change, negative = inhibition

1) Cn1c(=O)[nH]c(=O)c2c1[nH]c(=S)n2Cc1ccccc1; 4.88% [at 10.4 µM] (inactive)
2) O=C(NC(=S)Nc1ncccn1)c1ccccc1Br; inactive
3) CCN(CC(=O)NC(=O)NCc1ccccc1)Cc1nc2ccccc2c(=O)[nH]1; inactive
4) O=C1CCCN1CCCNC(=S)Nc1ccc(F)c(Cl)c1; inactive
5) Cc1cccc(C)c1OCCN1CCOCC1; 14.9% [at 10.4 µM] (inactive)
6) CNC(=S)N/N=C/c1ccc(N2CCOCC2)s1; -8.92% [at 10.4 µM] (inactive)
7) CN(C)CCOc1ccc(Cl)cc1C(C)(C)C; -6.56% [at 10.4 µM] (inactive)
8) Cc1cccc(-c2nnc(SCC(=O)O)n2Cc2ccccc2)c1; 6.79% [at 10.4 µM] (inactive)
9) COc1ccc(C(=O)NC(=S)N2CCCCC2c2cccnc2)cc1OC (centres undefined); inactive
10) C=C(C)CNC(=S)N/N=C/c1ccccc1OCC(=O)O; inactive
11) COC(=O)CC1=NN(c2nc(C)cc(C)n2)C(=O)C1; inactive
12) Cc1ccc(OCCCCc2c(C)n[nH]c2C)cc1; 7.15% [at 10.4 µM] (inactive)
13) O=[N+]([O-])c1cc([N+](=O)[O-])c2cccnc2c1O; inactive
14) Cc1cnc(NC(=O)c2ccccn2)s1; -23.9% [at 10.4 µM] (inactive)

----------
EXPERIMENT DESCRIPTION: NFAT Signaling Pathway (AID 444);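 also: carbachol stimulus at about its EC50 of 1 µM final; % is scaled to controls: 0 for no effect and ±100 for the full control effect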
TEST SETTINGS: Jurkat NFAT-bla M1, carbachol, beta-lactamase ratio, 5 h; at 7.69 µM (top of the series) unless noted
Results filed as inconclusive are left out. The source made the active and inactive calls. The call rests on the fitted dose curve; in most records, active means well fitted curve in either direction with a large enough effect (not every such curve was filed as active); inconclusive means small, poorly fitted or top-dose-only effect, or another doubt; inactive means flat fitted curve, though single readings scatter.
ENDPOINT: activity change, negative = inhibition

1. O=C(O)c1cscc1Cc1cccs1; -2.63% (inactive)
2. Cc1ccc(N=Nc2c(O)c3ccccc3[nH]c2=O)c(S(=O)(=O)N(C)C)c1; 2.83% (inactive)
3. O=C(O)c1c[nH]c2cc(OCc3ccccc3)ccc2c1=O; 5.14% (inactive)
4. CN(C)C[C@H]1CCC[C@@H](CN(C)C)C1=O; -4.78% (inactive)
5. Cc1c(Cl)cccc1NC(=O)C[C@H]1Sc2ccccc2NC1=O; 7.2% (inactive)
6. CCNc1ncc2nc(C)c(=O)n(Cc3cccc(OC)c3)c2n1; -2.59% (inactive)
7. CN(CCC(=O)O)S(=O)(=O)c1ccccc1; 15.6% (inactive)
8. CN(C)C(=O)c1ccc(-c2nc(Nc3ccc(F)cc3)c3ccccc3n2)cc1; 1.18% (inactive)
9. COCCn1c(=O)c(-c2cccs2)nc2cnc(Oc3ccc(OC)cc3)nc21; 15.8% (inactive)
10. Cn1c(N)c(N=Nc2ccc(S(N)(=O)=O)cc2)c(=O)n(C)c1=O; 16.4% (inactive)
11. O=C1[C@@H]2[C@@H]3C=C[C@H]([C@@H]2C(=O)N1CN1CCSCC1)[C@@H]1[C@@H]2C(=O)N(CN4CCSCC4)C(=O)[C@@H]2[C@H]31; 5.4% (inactive)
12. O[C@@H]1[C@@H](OCc2ccccc2)OC[C@H](O)[C@@H]1O; -8.65% (inactive)
13. CC[C@@H](c1ccc2cc(O)ccc2c1)C(C)(C)C(=O)O; 8.96% (inactive)
14. O=c1c(-c2cccs2)nc2cnc(Oc3ccccc3)nc2n1C1CC1; 22.4% (inactive)
15. Cc1ccccc1CNc1ncnc2c1ncn2[C@@H]1O[C@@H](CO)[C@H](O)[C@@H]1O; 10.4% [at 38 µM] (inactive)
16. CN1CCC[C@@H]1c1cccnc1.O=C(O)c1ccccc1O.O=C([OH2+])c1ccccc1O.O=C([OH2+])c1ccccc1O.O=C([OH2+])c1ccccc1O.[Cu]; -1.52% (inactive)
17. N[C@@](CC(=O)O)(Cc1ccccc1)C(=O)O; 0.819% (inactive)
18. O=c1oc2ccccc2c(O)c1/C=N/c1nc(-c2ccc(O)c(O)c2)cs1; 27.7% (inactive)
19. C[C@@H]1CCCN(C[C@@H](O)CN2CCCc3ccccc32)C1; -7.43% (inactive)
20. O=C(NCc1cccnc1)[C@@H]1[C@@H](C(=O)O)[C@H]2CC[C@@H]1O2; 4.54% (inactive)
21. COCCNc1nc(-c2ccc(C(=O)N(C)C)cc2)nc2ccccc12; 17.9% (inactive)
